Biological target: human L-Selectin-IgG-chimera (Homo sapiens, UniProt P14151)
Construct: fused on or other part: human IgG Fc part, captured on the plate by goat anti human Fc antibody; a tag, no second protein
Sequence (P14151 39-318 limits assumed): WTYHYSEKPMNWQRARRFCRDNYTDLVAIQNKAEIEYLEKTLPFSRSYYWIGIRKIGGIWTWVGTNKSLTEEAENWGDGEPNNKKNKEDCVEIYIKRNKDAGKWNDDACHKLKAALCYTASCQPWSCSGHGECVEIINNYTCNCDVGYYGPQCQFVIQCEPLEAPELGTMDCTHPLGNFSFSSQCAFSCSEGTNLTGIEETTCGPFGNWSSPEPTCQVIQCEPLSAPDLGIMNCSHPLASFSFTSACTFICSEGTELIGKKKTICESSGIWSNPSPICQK
Experiment: Sialyl Lewis X Tyrosine Sulfate Assay (sLex TSA), L-selectin
Type: binding
Conditions: sLexTSA, in vitro inhibition at 100 μM
So basically: L-Selectin [% inhib.] at 20 % inhib. or higher? That is t. Lower than 20 % inhib.? That is f.

Here's what some known entries look like.
compound: COC(=O)c1ccc(C)c(NC(=O)CCCNC(=O)c2cc(O)cc(O)c2)c1 [Compound 37]
target-of-assay: human L-Selectin-IgG-chimera (Homo sapiens, UniProt P14151)
category-label: f

compound: O=C(CCCNC(=O)c1cc(O)cc(O)c1)Nc1cccc(C(=O)O)c1 [Compound 21]
target-of-assay: human L-Selectin-IgG-chimera (Homo sapiens, UniProt P14151)
category-label: f

compound: Cc1c(NC(=O)CCCNC(=O)c2cc(O)cc(O)c2)cccc1C(=O)O [Compound 38]
target-of-assay: human L-Selectin-IgG-chimera (Homo sapiens, UniProt P14151)
category-label: f

**Query** hey, is L-Selectin [% inhib.] for this one >= 20 % inhib.? O=C(O)CCc1cccc(NC(=O)CCCNC(=O)c2cc(O)cc(O)c2)c1 [Compound 32]
**Result** f

**Query** Same again, this time with O=C(O)Cc1cccc(NC(=O)CCCNC(=O)c2cc(O)cc(O)c2)c1 [Compound 34]
**Result** f

**Query** Same again, this time with COC(=O)CCc1cccc(NC(=O)CCCNC(=O)c2cc(O)cc(O)c2)c1 [Compound 33]
**Result** t

**Query** Same again, this time with COC(=O)c1cccc(NC(=O)CCCNC(=O)c2cc(O)cc(O)c2)c1 [Compound 22]
**Result** t

**Query** Same again, this time with COC(=O)Cc1cccc(NC(=O)CCCNC(=O)c2cc(O)cc(O)c2)c1 [Compound 35]
**Result** f

**Query** Same again, this time with O=C(CCCNC(=O)c1cc(O)cc(O)c1)Nc1ccc(C(=O)O)cc1 [Compound 24]
**Result** f

Reference source for all entries: patent US20090030015A1
